- Target Desc: B′γ1 (Homo sapiens, UniProt Q13362)
- Construct: Expression and purification of full-length PP2A Aα, Cα, B′γ1 and PR70 (B″ family); made in house
- Sequence (Q13362 whole entry, looked up): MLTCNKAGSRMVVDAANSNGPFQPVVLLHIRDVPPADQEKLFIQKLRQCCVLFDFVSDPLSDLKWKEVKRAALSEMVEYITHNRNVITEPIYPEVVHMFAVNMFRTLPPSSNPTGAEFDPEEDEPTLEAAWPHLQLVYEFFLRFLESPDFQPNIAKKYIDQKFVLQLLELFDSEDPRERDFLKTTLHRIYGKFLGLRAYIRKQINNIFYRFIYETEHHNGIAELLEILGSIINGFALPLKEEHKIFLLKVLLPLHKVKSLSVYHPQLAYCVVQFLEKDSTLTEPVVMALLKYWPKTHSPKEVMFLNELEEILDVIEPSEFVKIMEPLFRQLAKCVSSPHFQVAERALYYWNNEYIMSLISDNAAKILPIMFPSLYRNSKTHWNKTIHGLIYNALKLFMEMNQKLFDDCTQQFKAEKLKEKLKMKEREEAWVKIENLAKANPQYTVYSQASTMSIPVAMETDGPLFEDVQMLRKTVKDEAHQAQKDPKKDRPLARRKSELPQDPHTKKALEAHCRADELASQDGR
- Test Method Notes: Isothermal titration calorimetry of synthetic peptides
- Format: binding
- Condition Details: ITC; 1 mM peptide titrated to 20–50 μM B′γ1; 20 mM HEPES pH 7.5, 200 mM NaCl
pKd: −log10 of the molar value. Where no end group is shown, it is not given here.
Measured Metric: pKd

a = NKRLSTIDEEGS [Cyk4 peptide S149E]
b = NRKLESVAEEHE [CIP2A peptide]
input: Pick one: a or b . Which one has the lower reported pKd? State the label of the item chosen.
output: b
